- systemUnderTest: SALL4 (Homo sapiens, UniProt Q96SW2+Q9UJQ4)
- Sequence (Q9UJQ4 whole entry): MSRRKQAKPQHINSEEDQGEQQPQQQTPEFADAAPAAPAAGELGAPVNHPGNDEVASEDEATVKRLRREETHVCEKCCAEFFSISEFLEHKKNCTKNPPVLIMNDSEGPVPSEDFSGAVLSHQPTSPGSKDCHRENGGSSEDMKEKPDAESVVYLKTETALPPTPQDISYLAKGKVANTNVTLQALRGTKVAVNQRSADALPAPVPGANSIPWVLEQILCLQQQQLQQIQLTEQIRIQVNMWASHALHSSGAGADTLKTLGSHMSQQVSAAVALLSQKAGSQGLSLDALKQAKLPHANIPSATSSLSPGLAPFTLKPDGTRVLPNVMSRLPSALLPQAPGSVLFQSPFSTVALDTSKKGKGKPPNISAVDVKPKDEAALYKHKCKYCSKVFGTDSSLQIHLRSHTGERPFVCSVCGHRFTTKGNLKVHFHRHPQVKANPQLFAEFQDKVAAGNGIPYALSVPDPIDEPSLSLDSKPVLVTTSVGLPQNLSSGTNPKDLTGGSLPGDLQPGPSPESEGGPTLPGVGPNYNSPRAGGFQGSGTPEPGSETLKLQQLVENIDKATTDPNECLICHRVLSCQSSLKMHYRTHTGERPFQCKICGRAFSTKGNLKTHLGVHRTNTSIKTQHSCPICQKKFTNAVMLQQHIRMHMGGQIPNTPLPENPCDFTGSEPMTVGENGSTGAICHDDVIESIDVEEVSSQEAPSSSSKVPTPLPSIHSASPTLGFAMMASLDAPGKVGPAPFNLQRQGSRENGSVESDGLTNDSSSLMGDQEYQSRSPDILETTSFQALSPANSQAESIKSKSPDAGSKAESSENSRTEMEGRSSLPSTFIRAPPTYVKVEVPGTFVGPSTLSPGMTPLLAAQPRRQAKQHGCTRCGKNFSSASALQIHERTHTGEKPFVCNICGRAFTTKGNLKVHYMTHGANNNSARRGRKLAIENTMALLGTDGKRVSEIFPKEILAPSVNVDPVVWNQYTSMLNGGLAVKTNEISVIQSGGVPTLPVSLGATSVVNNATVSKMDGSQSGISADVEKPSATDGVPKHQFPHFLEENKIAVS
- Sequence (Q96SW2 whole entry): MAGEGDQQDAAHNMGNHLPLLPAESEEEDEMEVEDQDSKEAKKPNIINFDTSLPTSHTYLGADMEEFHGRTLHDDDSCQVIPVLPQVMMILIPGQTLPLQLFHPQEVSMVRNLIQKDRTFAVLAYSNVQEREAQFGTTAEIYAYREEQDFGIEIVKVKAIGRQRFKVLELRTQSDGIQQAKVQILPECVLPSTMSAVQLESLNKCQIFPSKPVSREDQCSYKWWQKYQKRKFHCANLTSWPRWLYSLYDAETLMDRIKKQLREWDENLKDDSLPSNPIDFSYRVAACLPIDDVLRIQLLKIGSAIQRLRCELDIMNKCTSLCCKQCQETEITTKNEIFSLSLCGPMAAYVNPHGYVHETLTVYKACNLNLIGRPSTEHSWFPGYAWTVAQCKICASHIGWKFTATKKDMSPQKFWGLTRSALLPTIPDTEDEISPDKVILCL
- Sequence (Q16531 2-1140 partner limits assumed): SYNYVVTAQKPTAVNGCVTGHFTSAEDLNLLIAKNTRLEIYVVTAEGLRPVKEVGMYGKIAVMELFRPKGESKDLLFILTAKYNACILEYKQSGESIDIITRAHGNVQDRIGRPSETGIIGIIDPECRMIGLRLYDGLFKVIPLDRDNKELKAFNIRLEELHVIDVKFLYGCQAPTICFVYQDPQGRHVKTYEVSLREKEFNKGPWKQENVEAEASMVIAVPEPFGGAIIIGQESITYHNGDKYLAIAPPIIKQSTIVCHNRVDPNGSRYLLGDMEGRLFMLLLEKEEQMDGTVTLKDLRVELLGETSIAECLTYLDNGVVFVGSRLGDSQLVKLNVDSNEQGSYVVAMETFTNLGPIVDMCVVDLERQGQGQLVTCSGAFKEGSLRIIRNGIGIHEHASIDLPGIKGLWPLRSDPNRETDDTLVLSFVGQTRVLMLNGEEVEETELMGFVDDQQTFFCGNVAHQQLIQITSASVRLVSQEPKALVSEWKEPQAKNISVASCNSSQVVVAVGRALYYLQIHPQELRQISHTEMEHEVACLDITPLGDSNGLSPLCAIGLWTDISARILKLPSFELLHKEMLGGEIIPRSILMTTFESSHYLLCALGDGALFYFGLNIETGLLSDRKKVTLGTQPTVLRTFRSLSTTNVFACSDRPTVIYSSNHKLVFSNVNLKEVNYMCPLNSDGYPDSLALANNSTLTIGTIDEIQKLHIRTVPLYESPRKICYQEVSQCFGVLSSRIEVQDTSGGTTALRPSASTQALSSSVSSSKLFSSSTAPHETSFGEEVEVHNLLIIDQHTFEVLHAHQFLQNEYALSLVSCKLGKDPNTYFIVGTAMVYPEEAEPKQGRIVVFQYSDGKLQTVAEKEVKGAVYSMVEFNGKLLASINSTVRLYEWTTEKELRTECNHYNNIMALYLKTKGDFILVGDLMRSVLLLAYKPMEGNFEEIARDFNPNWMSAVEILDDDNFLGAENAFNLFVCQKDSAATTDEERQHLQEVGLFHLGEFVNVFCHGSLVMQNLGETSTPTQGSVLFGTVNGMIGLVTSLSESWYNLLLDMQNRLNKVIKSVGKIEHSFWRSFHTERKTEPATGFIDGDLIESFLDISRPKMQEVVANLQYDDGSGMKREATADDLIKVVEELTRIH
- assayProtocol: HiBiT degradation assay, KELLY.2 (SALL4-HiBiT) cells
- Format: cell-based
- particulars: read-out: HiBiT-Degradation KELLY.2 SALL4 6 hours Emax, KELLY.2 cells
Each entry below lists one item and its recorded Emax value.

molecule | systemUnderTest | Emax
CC1(n2cc(Cc3ccc4c5c(cccc35)C(=O)N4C3CCC(=O)NC3=O)cn2)CCN(C(=O)C2(C(F)(F)F)CC2)CC1 (stereo not shown) | SALL4 (Homo sapiens, UniProt Q96SW2+Q9UJQ4) | < 45%
N#Cc1ccc(Cc2ccc3c4c(cccc24)N(C2CCC(=O)NC2=O)C3=O)cc1 (stereo not shown) | SALL4 (Homo sapiens, UniProt Q96SW2+Q9UJQ4) | 45 to 60%
O=C1CCC(N2C(=O)c3ccc(CNCCc4ccc(Cl)cc4)c4cccc2c34)C(=O)N1 (stereo not shown) | SALL4 (Homo sapiens, UniProt Q96SW2+Q9UJQ4) | < 45%

Summary for this molecule, COc1ncc(CN2CCC(c3ccc4c5c(cccc35)N(C3CCC(=O)NC3=O)C4=O)CC2)cn1 (stereo not shown) : Emax is 60 to 95%

For this molecule ( O=C1CCC(N2C(=O)c3ccc(Br)c4cccc2c34)C(=O)N1 (stereo not shown) ), measured Emax is < 45%

Entry O=C1CCC(N2C(=O)c3ccc(N4CCc5ccccc54)c4cccc2c34)C(=O)N1 (stereo not shown) ; Emax = < 45%

So, CCOC(=O)c1cc(Cc2ccc3c4c(cccc24)N(C2CCC(=O)NC2=O)C3=O)ccc1F (stereo not shown) ? Its Emax was 60 to 95%
